Biological target: fusion protein PRM
Sequence (chain, as listed by the source): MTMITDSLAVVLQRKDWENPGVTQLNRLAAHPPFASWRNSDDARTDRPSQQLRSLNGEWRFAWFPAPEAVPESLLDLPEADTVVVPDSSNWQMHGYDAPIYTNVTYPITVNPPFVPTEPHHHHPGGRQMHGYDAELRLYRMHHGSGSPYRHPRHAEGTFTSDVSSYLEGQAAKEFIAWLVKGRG
Measured metric: relative cleavage efficiency

Protein	relative cleavage efficiency
OmpT protease variant OmpT D97N (protein) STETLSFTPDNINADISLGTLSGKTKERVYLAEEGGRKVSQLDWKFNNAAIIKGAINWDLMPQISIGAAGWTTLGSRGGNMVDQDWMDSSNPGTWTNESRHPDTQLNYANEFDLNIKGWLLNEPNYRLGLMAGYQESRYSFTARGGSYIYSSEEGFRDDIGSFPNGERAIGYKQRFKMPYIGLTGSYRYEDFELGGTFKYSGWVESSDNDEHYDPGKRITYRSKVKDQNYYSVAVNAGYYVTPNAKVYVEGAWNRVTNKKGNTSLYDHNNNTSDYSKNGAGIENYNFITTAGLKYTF	< 3%
OmpT protease variant OmpT D97L (protein) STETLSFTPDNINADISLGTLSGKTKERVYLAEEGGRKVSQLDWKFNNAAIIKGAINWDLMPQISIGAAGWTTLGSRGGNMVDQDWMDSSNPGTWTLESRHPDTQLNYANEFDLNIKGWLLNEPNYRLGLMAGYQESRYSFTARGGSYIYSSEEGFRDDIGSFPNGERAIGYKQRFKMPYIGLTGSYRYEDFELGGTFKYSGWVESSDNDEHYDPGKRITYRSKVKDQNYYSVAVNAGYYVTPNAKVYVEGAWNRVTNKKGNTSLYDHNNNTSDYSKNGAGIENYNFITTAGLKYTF	< 3%

Please look at the following protein next.
Q) What relative cleavage efficiency value was documented for this protein, OmpT protease variant OmpT D97M (protein) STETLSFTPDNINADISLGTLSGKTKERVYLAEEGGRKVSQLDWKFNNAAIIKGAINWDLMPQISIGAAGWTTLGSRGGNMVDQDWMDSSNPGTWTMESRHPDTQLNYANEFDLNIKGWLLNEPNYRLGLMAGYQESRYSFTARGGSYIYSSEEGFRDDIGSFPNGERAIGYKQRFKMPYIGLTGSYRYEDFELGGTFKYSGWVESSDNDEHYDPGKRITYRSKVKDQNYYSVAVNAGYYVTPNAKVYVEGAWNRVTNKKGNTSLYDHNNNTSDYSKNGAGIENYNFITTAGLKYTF ?
A) < 3%
